Cited source: PubChem BioAssay (NCI)

In this section we review reported log10 TGI values for a set of compounds.
Tested on: LOX IMVI melanoma
Method Notes: NCI tumour cell line growth inhibition, 48 h
Values are log10 of TGI in µM.

Worked examples, 4 compounds total:
Sample O=C(CCCCN1CCOCC1)Nc1ccc(Cn2nnc3c2C(=O)c2nnn(Cc4ccc(NC(=O)CCCCN5CCOCC5)cc4)c2C3=O)cc1 ; log10 TGI observed: -0.52

So, COC(=O)c1cc(C)ccc1/C=C1\Cc2cccc(C)c2C1=O ? Its log10 TGI was 1.82

Sample COC1(OC)CC(CO)(CNc2nc(N)nc(Cl)c2C=O)C1 ; log10 TGI observed: 1.55

// log10 TGI lookup, compound = O=C(Nc1ccc2ncccc2c1)c1cc2c(cc1Cl)Sc1nccn1S2(=O)=O , result: 1.53

Continuing:
For O=C1N[C@@H]2[C@@H](O)[C@@H](O)[C@H](O)C[C@H]2c2cc3c(c(O)c21)OCO3 the compound record lists log10 TGI as -0.65

log10 TGI for O=C1O/C(=C\c2ccc(O)c(Br)c2)C(c2ccc(O)c(Cl)c2)=C1Br is 1.86

---

System: BT-549 breast
Method Notes: NCI tumour cell line growth inhibition, 48 h
Property: TGI

TGI value, target or system BT-549 breast, for O=CN/N=C/c1ccc(Cl)c([N+](=O)[O-])c1 : 20 µM

Value sought: TGI, system BT-549 breast, item Nc1ccc(S(=O)(=O)Nc2cnc3ccccc3n2)cc1 . Result: > 100 µM

Note to self: TGI of CC(C)=CC(=O)OC1C(CO)OC(Oc2cc(O)c3c(=O)cc(-c4ccc(O)c(O)c4)oc3c2)C(OC2OC(C)C(O)C(O)C2O)C1O (stereo unspecified) with BT-549 breast was > 100 µM

More entries:
Tested on BT-549 breast: Cc1nn(C(=O)c2ccccc2O)c2c1C(c1ccco1)SC(N)=N2 (stereo unspecified) . Observed TGI: > 10 µM

Response field TGI (BT-549 breast) for item CC(C)CSCC1OC(n2cnc3c(N)nccc32)C(O)C1O (stereo unspecified) : > 100 µM

Reported TGI (BT-549 breast) for entry COc1ccc2nc3cccc([N+](=O)[O-])c3c(NCCNCCO)c2c1 is 0.173 µM

---

Test system: M14 melanoma
Method Notes: NCI tumour cell line growth inhibition, 48 h
Property: TGI

In the examples that follow, each entry is paired with its recorded TGI.
O=C1c2cccc(O)c2C(=O)c2cccc(O)c21 has a reported TGI of > 100 µM

Measured TGI, C=C1CCc2ccccc2C1=O : > 100 µM

More entries:
The compound listed as CC(=O)OC1CCC2(C)C(CCC3C4CC=C(C5(C)OCCO5)C4(C)CCC32)C1 (stereo not drawn) has a reported TGI of 52.8 µM

Record C=C1C(=O)OC2/C=C(/CO)C3(O)CC(O)C(C)(CC(OC(=O)/C(C)=C/C)C12)O3 (stereo not drawn) . Reported TGI: > 58.3 µM

Lab note: measured TGI of O=C(Nc1ccc(Cl)c(Cl)c1)C(=O)C(C(=O)c1ccccc1F)C1OC(=O)c2ccccc21 (stereo not drawn) was 34.3 µM

Notebook: COC(=O)C#Cc1cccc(OC)c1OC , TGI read as > 100 µM

Reported TGI for CC(=O)C1C(=O)C(=O)N(c2ccc(Cl)c(Cl)c2)C1=O (stereo not drawn) was > 100 µM

TGI recorded for this compound, Cc1nn(CCO)c(C)c1N=[N+]([O-])c1c(C)nn(CCO)c1C , is > 19.7 µM

Data point: C=C1C(=O)O[C@H]2[C@H]1CC/C(COC(=O)CCCC(=O)OC/C1=C/CC[C@@]3(C)O[C@H]3[C@H]3OC(=O)C(=C)[C@@H]3CC1)=C\CC[C@@]1(C)O[C@@H]21 ; TGI = 4.51 µM

So for C[Si](C)(c1ccccc1)C1CC(=O)CC(=O)C1 , the logged TGI turned out to be > 100 µM

What the record says about O=Cc1cn(Cc2ccc(Cl)cc2)c2ccccc12 : TGI is 72.5 µM

// sample Cc1cc(Cc2cc(Cc3cc(C)cc(C(C)(C)C)c3O)c(C)cc2C)c(O)c(C(C)(C)C)c1 , its TGI was 33.8 µM

O=S(/C=C/C=C/S(=O)(=O)c1ccccc1)c1ccccc1 (stereo not drawn) has a reported TGI of 1.56 µM

---

System: MDA-MB-231 breast
Method Notes: NCI tumour cell line growth inhibition, 48 h
Measured GI50 by item

What the record says about C=CC(=O)N1C[C@H](COc2nc(Nc3cnn(C)c3)nc3[nH]cc(Cl)c23)[C@@H](OC)C1 : GI50 is 2840 nM

Sample C(=C1c2ccccc2-c2ccccc21)c1ccncc1 ; GI50 observed: 6750 nM

For record N#Cc1c(Br)n(C2OC(CO)C(O)C2O)c2ncn3ccnc3c12 (stereo not given) the listed GI50 is > 100000 nM

Lab note: COc1cc(-c2csc(NC(=O)Nc3ccc(Cl)c(C(F)(F)F)c3)n2)cc(OC)c1OC gave GI50 of 1470 nM

Would you kindly look at the next entry?
Query C[n+]1c2ccccc2c(Nc2ccc(N3CCCCC3)cc2)c2[nH]c3ccccc3c21 yields GI50 of 327 nM

---

Test system: RXF 393 renal
Method Notes: NCI tumour cell line growth inhibition, 48 h
Each entry below carries its reported TGI.

Worked cases, TGI given:
Record summary for O=C1CC2(CCC(O)(c3ccccc3)C(C(=O)c3ccccc3)C2)C(=O)c2ccccc2N1 (stereo not given) : reported TGI = > 100 µM

The measured TGI associated with CCCCCCCC(=O)SCC/C=C/[C@@H]1CC(=O)NCc2cccc(n2)CN(Cc2ccc3ccccc3c2)CC(=O)N[C@@H](C(C)C)C(=O)O1 reads > 100 µM

Documented TGI of COc1nc(Cl)nc(Cl)c1Cl (tested in a mixture with another compound) : 31.7 µM

TGI recorded for this molecule, CSC(Cc1ccc2c(c1)Sc1ccccc1O2)=[N+]1CCOCC1 , is > 100 µM

According to the records, this molecule CC12OC3(C)OC(=O)C(c4ccccc4)(O1)C3(C)O2 (stereo not given) displays TGI of > 100 µM

Summary for this molecule, C#CCOC(=O)C(N)C(C)O (stereo not given) : TGI is > 100 µM

// recorded TGI for COc1ccc(Nc2nc3c(N)cc(C(F)(F)F)cc3nc2-c2ccccc2)cc1OC : 50.2 µM

Entry NCCCN1CCN(c2ccccc2)CC1 , TGI reported as > 100 µM

molecule COc1ccc(C(O)c2cc(OC)c(OC)c(OC)c2)cc1 (stereo not given) , TGI observed: 30.6 µM

For reference, reported TGI for CC1=NN(C(=O)CC(=O)N(C(=O)c2ccccc2)c2ccc(Cl)cc2)C(=O)C1N=Nc1ccc([N+](=O)[O-])cc1 (stereo not given) stands at > 10 µM

***
Reported TGI for Nn1c2c(c3ccccc3c1=O)C(=O)c1ccccc1-2 was > 50 µM

Entry Cc1nn(CCO)c(C)c1N=[N+]([O-])c1c(C)nn(CCO)c1C — recorded TGI = 3.73 µM

Sure, the documented TGI for CC(=N\O)/C(C)=N/O.CC(=N\O)/C(C)=N/O.CC(=N\O)/C(C)=N/O.CC(=N\O)/C(C)=N/O.[CH3-].[CH3-].[Co].[Co] is 39.9 µM

Record summary for COc1ccc2c(c1)[n+]([O-])c(C#N)c(NC(=O)c1cccs1)[n+]2[O-] : reported TGI = > 100 µM

Per the records, this molecule ( OCc1ccc(N(Cc2ccc(F)cc2)CC2CC2)cc1Cl ) has TGI equal to 8.48 µM

get_value(item= CC(=O)OCC1(C)C(OC(C)=O)CCC2(C)C(CC(OC(C)=O)C3=CCOC3=O)C(O)(CO)CCC12 (stereo not given) , readout=TGI) returns > 100 µM

TGI reading for S=C(Nc1ccccc1)Nc1ccccc1SC(/C=C/NNC1=NC(c2ccccc2)C(c2ccccc2)=NN1)c1ccccc1 (stereo not given) : 44.6 µM

According to the records, this molecule O=C(O)CCCNS(=O)(=O)c1ccccc1 displays TGI of > 100 µM

Short answer for O=c1c2ccc(Cl)cc2oc2c(CNc3ccc(S(=O)(=O)Nc4nccs4)cc3)cccc12 : TGI was > 100 µM

Field TGI (entry c1ccc2c(c1)CCN2CCN1CCc2ccccc21 ) reads > 10 µM

---

Tested on: NCI-H460 lung
Method Notes: NCI tumour cell line growth inhibition, 48 h
Property: TGI

So, O=C(O)CCCNS(=O)(=O)c1ccccc1 ? Its TGI was > 100 µM

The reported TGI of the compound CC1(C)NC(C)(C)/C(=N\O)C(=NO)/C1=N/O was > 100 µM

The compound COc1ccc2nc3cccc([N+](=O)[O-])c3c(NCCNCCO)c2c1 showed TGI equal to 0.102 µM

Briefly, TGI measured for CC(C)c1ccc(/C=C2\N=C(c3ccc([N+](=O)[O-])cc3)OC2=O)cc1 : > 100 µM

compound Cc1nc2c(o1)C(=O)c1ccccc1C2=Nc1ccccc1 , TGI observed: 12.3 µM

Short answer for CC1OC(OC2C(O)CC(OC3C(O)CC(OC4CCC5(C)C(CCC6C5CCC5(C)C(C7=CC(=O)OC7)CCC65O)C4)OC3C)OC2C)CC(O)C1O (stereo not given) : TGI was < 0.0187 µM

Others:
Notebook: COc1ccc(Nc2nc3c(N)cc(C(F)(F)F)cc3nc2-c2ccccc2)cc1OC , TGI read as > 100 µM

Looking up CC1=NN(C(=O)c2ccc(Cl)cc2)C(=O)C1N=Nc1ccc(S(=O)(=O)Nc2ncccn2)cc1 (stereo not given) , I see its TGI listed as > 100 µM

TGI measured on CCCN(CCC)c1ccc(CO)c(Cl)c1 = 32.1 µM

The reported value for COc1cccc2c(Nc3ccc(S(=O)(=O)N=C(N)N)cc3)c3ccc([N+](=O)[O-])cc3nc12 in terms of TGI is > 100 µM

Notebook: C/C=C1\C(=O)O[C@H]2C/C(C)=C/CC/C(C)=C/CC[C@@]3(C)O[C@@H]3C[C@@H]12 , TGI read as > 100 µM

The recorded TGI for entry COc1ccc(OC)c2c1C(=O)C(=O)C(Cl)=C2O equals > 100 µM
